ASSAY_TEXT: NOD1 signaling inhibitors, primary screen, cell-based, luminescence, uHTS (AID 1578);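 also: HEK-293T reporter cells stimulated with the NOD1 agonist gamma-tri-DAP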
ASSAY_SETUP: NOD1-driven NF-kB luciferase reporter cells, at 4 µM, active compounds read high
In all, about 290,000 compounds went through this assay and about 3,000 (1%) were called active. This excerpt belongs to a sample that is enriched for actives.
ENDPOINT: inhibition (%)
Give bare numbers, in %.

Worked cases, inhibition given:
| COMPOUND | inhibition / % |
| --- | --- |
| CN1CCN(C(=O)C2CCCN(S(=O)(=O)c3ccc(F)cc3)C2)CC1 (configuration not stated) | -7.3 |
| CCCCOc1ccccc1C(=O)N(Cc1ccco1)C1CCS(=O)(=O)C1 (configuration not stated) | 25.4 |
| O=Cc1ccc(N2CCCC2)c([N+](=O)[O-])c1 | -40.9 |

Please state, for each entry, its recorded inhibition.
1. Cc1ccsc1/C=C/c1ccc2cccc(O)c2n1
2. COCCC(=O)N1CCC(Oc2ccc(C(=O)N3C[C@@H](C)O[C@@H](C)C3)cc2)CC1
3. CCC(C)(C(=O)NC1CCCCC1)N(C(=O)CC1NC(=O)NC1=O)c1c(C)n(C)n(-c2ccccc2)c1=O (configuration not stated)
4. CC(=O)c1ccc(NC(=O)C2CCCN(C(=O)c3ccc(Cl)cc3)C2)cc1 (configuration not stated)
5. Cc1ccn2c(NCc3ccc4c(c3)OCO4)c(-c3ccc(O)cc3)nc2c1
6. O=C(N/N=C(/c1ccccc1)c1ccncc1)c1ccc2c(c1)OCO2
7. O=C(Nc1cc(Sc2ccccn2)cc([N+](=O)[O-])c1)c1ccc(Cl)cc1
8. CCOc1ccc2nc(SCC#N)c(C#N)cc2c1

Completion:
1. 63.2
2. -23.9
3. -11.2
4. -22.6
5. 3.7
6. -26.7
7. 74.1
8. 68.2

Please state, for each entry, its recorded inhibition.
1. O=C(Nc1cc(Sc2ccccn2)cc([N+](=O)[O-])c1)c1ccc([N+](=O)[O-])cc1
2. CCOC(=O)C1=C(C(F)(F)F)Nc2ncnn2C1c1cc(OC)ccc1OC (configuration not stated)
3. N#C/C(=C\c1cccc([N+](=O)[O-])c1)C(=O)NCC1CCCO1 (configuration not stated)
4. COc1ccc(-c2nc3cc(C)ccn3c2NCc2ccc3c(c2)OCO3)cc1
5. CCSc1nc2ccc(OC)cc2cc1C#N
6. O=C(NC(=O)c1cccc(Cl)c1)OC[C@@H]1CCCN2CCCCC12 (some centres not stated)
7. COc1ccc(C(=O)Nc2ccc3c(c2)CCCN3C(=O)c2cccs2)c(OC)c1
8. CCOc1ccc2nc(SCC(=O)N3CCCCCC3)c(C#N)cc2c1

Completion:
1. 45.6
2. 10.8
3. -21
4. 48.5
5. -45.3
6. 14.2
7. 21.1
8. -18.2

Please state, for each entry, its recorded inhibition.
1. CN(CC1CCN(CCc2cccc(C(F)(F)F)c2)CC1)C(=O)c1ccc(F)cc1
2. Cc1csc(NC(=O)CSc2nnc3ncccn23)n1
3. COc1ccccc1NS(=O)(=O)c1cc(NC(=O)c2cc(=O)[nH]c3ccccc23)ccc1N1CCOCC1

Completion:
18.5
-6.2
0.5

* * *

ASSAY_TEXT: NOD1 signaling inhibitors, primary screen, cell-based, luminescence, uHTS (AID 1578);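 also: HEK-293T reporter cells stimulated with the NOD1 agonist gamma-tri-DAP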
ASSAY_SETUP: NOD1-driven NF-kB luciferase reporter cells, at 4 µM
The campaign covered roughly 290,000 compounds. About 3,000 (1%) were called active. Cut-off read from the data, not from the text of the source: active = inhibition mostly above about 36% (no sharp cut-off); inactive = mostly below about 34%. This is one part of a sample in which actives are shown more often than they occur.
Valid outcomes are listed here; reply with one: T for active, F for inactive

| MOLECULE | GROUP_LABEL |
| --- | --- |
| O=C(CCl)NC1CCCc2ccccc21 (stereo unspecified) | T |
| Cc1ccc2c(c1)C(=O)c1c(C(=O)O)cccc1-2 | F |
| C=CCN=c1scc(-c2ccc3c(c2)NC(=O)CO3)n1/N=C(\C)c1ccccn1 | T |
| CN(C(=O)CCl)C1CCCc2ccccc21 (stereo unspecified) | T |
| CCc1nnc(NC(=O)CCC(=O)NC2CCCc3ccccc32)s1 (stereo unspecified) | F |

As a next step, examine the molecule that follows.
Prompt: Status in this test for O=C(Cc1ccc(Br)cc1)NC1CCCc2ccccc21 (stereo unspecified) ?
Completion: F

* * *

ASSAY_TEXT: NOD1 signaling inhibitors, primary screen, cell-based, luminescence, uHTS (AID 1578);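 also: HEK-293T reporter cells stimulated with the NOD1 agonist gamma-tri-DAP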
ASSAY_SETUP: NOD1-driven NF-kB luciferase reporter cells, at 4 µM, active compounds read high
In all, about 290,000 compounds went through this assay and about 3,000 (1%) were called active. What follows is part of a selection rich in actives, with near analogues and random picks from the rest.
ENDPOINT: inhibition

| COMPOUND | ENDPOINT | TEST_RESULT |
| --- | --- | --- |
| CCCCOCCCNC(=O)C1c2ccccc2Oc2ccccc21 | inhibition | -0.9% (inactive) |
| CCOC(=O)c1ccc(NC(=O)COc2ccc(S(=O)(=O)NC(C)(C)C)cc2)cc1 | inhibition | -33.5% (inactive) |
| Cc1ccccc1-n1nc2c(c1NC(=O)c1c(-c3ccccc3Cl)noc1C)CS(=O)(=O)C2 | inhibition | -10.3% (inactive) |
| CCOc1ccc(C(=O)Nc2nnc(S(=O)(=O)Nc3ccccc3C)s2)cc1 | inhibition | -17.1% (inactive) |
| O=C(O)Cc1cc(I)c(Oc2ccc(O)c(I)c2)c(I)c1 | inhibition | -16.4% (inactive) |
| CCOc1ccc(C2NCCc3cc(OC)c(OC)cc32)cc1OC (stereo unspecified) | inhibition | 83.1% (active) |
| O=C(NC1=NCCS1)c1cc(-c2cccc(Br)c2)nc2ccccc12 | inhibition | -10.6% (inactive) |
| Cc1cccc(-c2oc3ccccc3c2C#CCCO)c1 | inhibition | -12.5% (inactive) |

Please state, for each entry, its recorded inhibition.
1. CCOc1cc2c(cc1OC)C(c1cccc([N+](=O)[O-])c1)NCC2 (stereo unspecified)
2. N#C/C(=C\c1cn(-c2ccccc2)nc1-c1cccnc1)c1nnc2n1CCCCC2
3. COc1ccc(C2NCCc3cc(OC)c(OC)cc32)cc1OC (stereo unspecified)

Completion:
-31.3% (inactive)
-13% (inactive)
-2.7% (inactive)

* * *

ASSAY_TEXT: NOD1 signaling inhibitors, primary screen, cell-based, luminescence, uHTS (AID 1578);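 also: HEK-293T reporter cells stimulated with the NOD1 agonist gamma-tri-DAP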
ASSAY_SETUP: NOD1-driven NF-kB luciferase reporter cells, at 4 µM, active compounds read high
Screen size: about 290,000 compounds; about 3,000 (1%) were called active. What follows is part of a selection rich in actives, with near analogues and random picks from the rest.
ENDPOINT: inhibition (%)
Give bare numbers, in %.

| ITEM_SMILES | inhibition, % |
| --- | --- |
| CCN(CC)S(=O)(=O)c1cc(NC(=O)Cn2cnc3ccccc3c2=O)ccc1C | -1.6 |
| O=C(N/N=C/c1ccccn1)c1cccc([N+](=O)[O-])c1 | 20 |
| O=C(N/N=C/c1ccccn1)c1ccc(NC(=O)c2cccc([N+](=O)[O-])c2)cc1 | -22.2 |
| O=C(O)c1cccc(NC(=S)N/N=C/c2ccccn2)c1 | 68.3 |

Please state, for each entry, its recorded inhibition.
1. COc1cc(NC(=O)CN2C(=O)CN(C)C2=O)c(C)cc1[N+](=O)[O-]
2. O=C(N/N=C/c1ccccn1)c1ccccc1
3. CCN(CC)S(=O)(=O)c1ccc(S(=O)(=O)Nc2ccc(C(=O)N3CCCC3)cc2)cc1

Completion:
[-27.7, -39, -2.4]

Prompt: Would you kindly share the measured inhibition for `COc1cc(NC(=O)CN2CCCCC2)c(C)cc1[N+](=O)[O-]` ?
Completion: -16.1

* * *

ASSAY_TEXT: NOD1 signaling inhibitors, primary screen, cell-based, luminescence, uHTS (AID 1578);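 also: HEK-293T reporter cells stimulated with the NOD1 agonist gamma-tri-DAP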
ASSAY_SETUP: NOD1-driven NF-kB luciferase reporter cells, at 4 µM, active compounds read high
Out of some 290,000 compounds screened, about 3,000 (1%) were called active. The sample holds actives, similar compounds and a random draw of the others, so the mix is not that of the screen.
ENDPOINT: inhibition (%)
Answers are plain numbers, in %.

Worked cases, inhibition given:
| ITEM_SMILES | inhibition / % |
| --- | --- |
| N#CC(Cc1cccc(CC(C#N)(c2ccccc2)c2ccccc2)c1)(c1ccccc1)c1ccccc1 | 4.8 |
| C/C(=N\NC(=O)C1CC1)c1cccs1 | -17.5 |
| O=C(O)c1cc(-c2ccc(Cl)cc2)n(-c2ccccc2)n1 | -29.5 |
| Nc1nonc1-n1nnc(C(=O)N/N=C/c2ccc(OCc3ccccc3)cc2)c1COc1ccc(F)cc1 | -0.6 |
| Cc1ccc(Sc2cc(NCCCO)c([N+](=O)[O-])c3nonc23)cc1 | 2.1 |

Please state, for each entry, its recorded inhibition.
1. COc1ccc(CNc2cc(NCCCO)c([N+](=O)[O-])c3nonc23)cc1
2. CN1c2ccsc2/C(=N/Nc2ccc(F)cc2)CS1(=O)=O
3. Cc1ccc(N/N=C2\CS(=O)(=O)N(C)c3ccsc32)cc1
4. CN1c2ccsc2/C(=N/Nc2ccccc2)CS1(=O)=O

Completion:
[48.5, -1.7, 58.9, -41.3]

Please state, for each entry, its recorded inhibition.
1. COc1ccc(Nc2cc(NCCCO)c([N+](=O)[O-])c3nonc23)cc1
2. COc1cc(-c2cc(-c3ccccc3)nc(SCC(=O)O)c2C#N)cc(OC)c1OC

Completion:
[4.8, -3.4]
